Reference source: patent US4396623A

Could you please report measured EC50 for the items listed next?
System: herpes simplex virus, Type 1
Assay Method Text: Antiviral test against herpes simplex virus, Type 1, growing in rabbit kidney cells (Virus Rating, MIC50)
Type: cell-based
Condition Set: Human alphaherpesvirus 1; Table 3 comparison; read-out: MIC50
Give bare numbers, in µg/mL.

Below, 3 compounds whose answers are already recorded.
Compound: Cc1cn([C@@H]2C[C@H](CO)[C@@H](O)C2)c(=O)[nH]c1=O (relative stereo) [Carbocyclic analog of thymidine]
Tested Target: herpes simplex virus, Type 1
EC50 (µg/mL): 0.8

Compound: CNc1cn([C@@H]2C[C@H](CO)[C@@H](O)C2)c(=O)[nH]c1=O (relative stereo) [Example 5]
Tested Target: herpes simplex virus, Type 1
EC50 (µg/mL): 10

Compound: O=c1[nH]c(=O)n([C@H]2C[C@H](O)[C@@H](CO)O2)cc1I [5-Iodo-2'-deoxyuridine, 5-iodo-2'-deoxyuridine]
Tested Target: herpes simplex virus, Type 1
EC50 (µg/mL): 0.3

Now for the compound whose EC50 we want.
**Query** Consider the compound O=c1[nH]c(=O)n([C@@H]2C[C@H](CO)[C@@H](O)C2)cc1Br (relative stereo) [Example 2] and give its measured EC50.
**Result** 0.3

----------
Test system: Type 2 herpes simplex virus
Assay Method Text: Antiviral test against Type 2 herpes simplex virus (Virus Rating)
Format: cell-based
Condition Set: Type 2 herpes simplex virus
So I've got a bunch of compounds here, and I need their VR values.

Compound: Cc1cn([C@@H]2C[C@H](CO)[C@@H](O)C2)c(=O)[nH]c1=O (relative stereo)
VR: 3.2

Compound: O=c1[nH]c(=O)n([C@@H]2C[C@H](CO)[C@@H](O)C2)cc1Br (relative stereo)
VR: 1.5

Compound: O=c1[nH]c(=O)n([C@@H]2C[C@H](CO)[C@@H](O)C2)cc1I (relative stereo)
VR: 3.4

**Query** Form field: reported VR of CNc1cn([C@@H]2C[C@H](CO)[C@@H](O)C2)c(=O)[nH]c1=O (relative stereo)
**Result** 1.2

----------
Test system: herpes simplex virus, Type 1
Assay Method Text: Antiviral test against herpes simplex virus, Type 1, growing in rabbit kidney cells (Virus Rating, MIC50)
Type: cell-based
Condition Set: Human alphaherpesvirus 1; Table 1; 50% inhibition of virus-induced cytopathogenic effect; rabbit kidney cells; read-out: MIC50 (minimum inhibitory concentration, 50%)
Please go through the items and note down their EC50.

Some solved cases for reference:
Compound: CNc1cn([C@@H]2C[C@H](CO)[C@@H](O)C2)c(=O)[nH]c1=O (relative stereo) [Example 5]
Readout Value: 15 µg/mL
//
Compound: CC(=O)OC[C@H]1C[C@@H](n2cc(I)c(=O)[nH]c2=O)C[C@@H]1OC(C)=O (relative stereo) [Example 4]
Readout Value: 10 µg/mL
//
Compound: CC(=O)OC[C@H]1C[C@@H](n2cc(Br)c(=O)[nH]c2=O)C[C@@H]1OC(C)=O (relative stereo) [Example 1]
Readout Value: 92 µg/mL

// next entry
**Query** Dear colleague, I am looking for the recorded EC50 of the following compound: CCCCNc1cn([C@@H]2C[C@H](CO)[C@@H](O)C2)c(=O)[nH]c1=O (relative stereo) [Example 6]
**Result** 290 µg/mL
